- Tested on: Dengue 4 virus MY01-22713
- Test Details: High-content imaging cell-based flavivirus immunodetection (HCl-CFI) assay, Dengue 4
- Assay Context: Dengue virus, A549, 48 h, read-out: Dengue 4 virus MY01-22713 in A549 using HCl [Inhibitor/IC50] Qualified AC50, A549 cells, 48 h, viral E protein expression
Readout Type: EC50

For every item in the list below, what is its measured EC50?
1. N#Cc1c(NC(=O)Cc2ccc3c(c2)CCS3(=O)=O)sc2c1CN(Cc1cccc(F)c1)CC2
2. COC(=O)c1cccc(CN2CCc3c(sc(NC(=O)Cc4ccc(S(C)(=O)=O)cc4)c3C#N)C2)c1
3. N#Cc1c(NC(=O)Cc2ccc(S(N)(=O)=O)cc2)sc2c1CCN(Cc1c(Cl)cccc1Cl)C2
4. CCC1(CC)Cc2sc(NC(=O)Cc3ccc(S(N)(=O)=O)cc3)c(C#N)c2CN1CC1CCCCC1
5. CC1(C)CS(=O)(=O)c2ccc(CC(=O)Nc3sc4c(c3C#N)CN(Cc3cccc(F)c3)CC4)cc21

["< 100 nM", "< 100 nM", "< 100 nM", "< 100 nM", "< 100 nM"]

For every item in the list below, what is its measured EC50?
1. Cc1cccc(CN2CCc3c(sc(NC(=O)Cc4ccc(S(C)(=O)=O)cc4)c3C#N)C2)c1
2. N#Cc1c(NC(=O)Cc2ccc3c(c2)CNS3(=O)=O)sc2c1CN(CC1CCCCC1)CC2
3. CS(=O)(=O)c1ccc(CC(=O)Nc2sc3c(c2C#N)CN(Cc2cccc(F)c2)CC3)cc1C#N
4. N#Cc1c(NC(=O)Cc2ccc3c(c2)S(=O)(=O)NC3)sc2c1CN(Cc1cccc(F)c1)CC2
5. CC1(C)Cc2sc(NC(=O)Cc3ccc(S(N)(=O)=O)cc3)c(C#N)c2CN1CC1CCCCC1
6. CN(C)S(=O)(=O)c1ccc(CC(=O)Nc2sc3c(c2C#N)CN(CC2CCCCC2)CC3)cc1
7. COCCOc1cccc(CC(=O)Nc2sc3c(c2C#N)CN(CC2CCCCC2)CC3)c1
8. COc1cc(CC(=O)Nc2sc3c(c2C#N)CN(CC2CCCCC2)CC3)ccc1S(C)(=O)=O

< 100 nM
< 100 nM
< 100 nM
< 100 nM
< 100 nM
100 to 1000 nM
100 to 1000 nM
< 100 nM

For every item in the list below, what is its measured EC50?
1. COc1cc(CC(=O)Nc2sc3c(c2C#N)CN(Cc2cccc(F)c2)CC3)ccc1S(C)(=O)=O
2. COc1cc(CC(=O)Nc2sc3c(c2C#N)C(C)(C)N(Cc2ccccc2)CC3)ccc1S(N)(=O)=O
3. CS(=O)(=O)Nc1ccc(CC(=O)Nc2sc3c(c2C#N)CN(CC2CCCCC2)CC3)cc1

["< 100 nM", "> 1000 nM", "100 to 1000 nM"]

For every item in the list below, what is its measured EC50?
1. COC(=O)c1cccc(CN2CCc3c(sc(NC(=O)Cc4ccc(S(N)(=O)=O)cc4)c3C#N)C2)c1
2. COc1cc(Cl)cc(CC(=O)Nc2sc3c(c2C#N)CN(Cc2cccc(F)c2)CC3)c1
3. N#Cc1c(NC(=O)Cc2ccc(S(N)(=O)=O)cc2)sc2c1CCN(Cc1cccc(F)c1)CC2
4. CS(=O)(=O)c1ccc(CC(=O)Nc2sc3c(c2C#N)CCN(Cc2cc(Cl)ccc2Cl)C3)cc1
5. COCCOc1cccc(CC(=O)Nc2sc3c(c2C#N)CN(Cc2cccc(F)c2)CC3)c1

["< 100 nM", "100 to 1000 nM", "< 100 nM", "100 to 1000 nM", "100 to 1000 nM"]
